System: NCI-H522 lung
protocol.text: NCI-60 one-dose screen, 48 h
condition.set: 10 µM unless noted
This is part of a sample that, as a whole, favours compounds with a hit. Of some 83,000 tested, about 20% had one in any assay. Active and inactive are the calls of the source. Rule for the calls: active = growth percent below 10; inactive = the rest.
Possible outcomes: TRUE = active, FALSE = inactive

{"smiles.text": "Cc1nc2ccccc2c(/C=C/c2ccc(Cl)cc2)c1C(=O)/C=C/c1ccccc1", "classification": "TRUE"}
{"smiles.text": "CC(=O)Cc1nsc(NC(=O)c2cc(-c3cc(Cl)ccc3Cl)oc2C)n1", "classification": "FALSE"}
{"smiles.text": "Cn1cc(-c2nc(-c3c[nH]c4c(Cl)nccc34)cs2)c2ccccc21", "classification": "FALSE"}

Data origin, for the record: PubChem BioAssay (NCI)
